B1: HDV Ribozyme (parent)
chain: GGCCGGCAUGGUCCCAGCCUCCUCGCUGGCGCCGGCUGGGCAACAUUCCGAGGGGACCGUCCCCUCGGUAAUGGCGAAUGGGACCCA

- Variants of: B1
- EXPERIMENT_DESCRIPTION: self-cleavage, relative activity (ratio to wild type); higher = more cleavage; co-transcriptional
EXPERIMENTAL_READOUT: self-cleavage
Numbers only.

*Q* Recorded self-cleavage for C48G A71C , please?
*A* 1.03

*Q* Recorded self-cleavage for G35A U46A , please?
*A* 0.332

*Q* Recorded self-cleavage for C36U A87U , please?
*A* 0.769

*Q* Recorded self-cleavage for G40A C44A , please?
*A* 0.692

*Q* Recorded self-cleavage for G31A G54C , please?
*A* 0.254

I have 4 variants here; please give me self-cleavage for each one.
1. A8G G31U
2. G17C U27A
3. G40U C86U
4. A51C U69A

*A*
1: 0.587; 2: 0.222; 3: 0.688; 4: 1.13

I have 7 variants here; please give me self-cleavage for each one.
1. C14G A71G
2. C7G A45C
3. G5C G10A
4. C19U A83G
5. U9A C24G
6. A8C C44G
7. A16C U69G

*A*
0.712
0
0.208
0.0985
0.111
0.401
0.923

I have 3 variants here; please give me self-cleavage for each one.
1. C36G C66G
2. G76A C84A
3. G38U C57G

*A*
0.237
0.958
0.38

I have 3 variants here; please give me self-cleavage for each one.
1. C61G C66A
2. G40A G53A
3. C75G G80A

*A*
1. 0.674
2. 0.882
3. 0.11

I have 7 variants here; please give me self-cleavage for each one.
1. U27C U65G
2. G35U G76A
3. G54U C57G
4. G55C C86A
5. C33U A78U
6. G81A C84A
7. C21U C75A

*A*
0.831
0.404
1.1
1.03
0.378
0.339
0.0739

I have 7 variants here; please give me self-cleavage for each one.
1. A51U C86U
2. G54C C66A
3. C14A C15A
4. C21A C57U
5. U72A A83G
6. C24G A56U
7. G1U C3A

*A*
[0.831, 0.814, 0.582, 0.192, 0.318, 0.0831, 0.654]

I have 4 variants here; please give me self-cleavage for each one.
1. G40A U47G
2. G35C G55A
3. U69A A77U
4. C49G C64G

*A*
1: 0.831; 2: 0.342; 3: 0.591; 4: 0.308

I have 5 variants here; please give me self-cleavage for each one.
1. G39A C86U
2. A8C C18U
3. C44G G82C
4. C63U U69G
5. C85A A87C

*A*
[0.513, 0.369, 0.0504, 0.875, 0.862]
